- System: SN12C
- Protocol details: NCI tumour cell line growth inhibition, 48 h
Calls of active or inactive are those of the source. Rule as the data show it: active = GI50 up to about 1.1 µM and inactive = higher.
Could you please pick one outcome from this set? true (1) for active, false (0) for inactive

A selection of reference data follows.
Q: Which outcome was assigned to CC(=O)OCC1OC(N2C(c3ccccc3)=CC(c3cccs3)C(C#N)=C2S)C(OC(C)=O)C(OC(C)=O)C1OC(C)=O (stereo not given) in this test?
Ans: false (0)

Q: Which outcome was assigned to CC1=C/C(=N\N(C)C)C(C(O)(C(F)(F)F)C(F)(F)F)C(C)(C)C1 (stereo not given) in this test?
Ans: false (0)

Q: Which outcome was assigned to "CCCCCCCc1ccc(-c2nnc(/N=N/c3ccc(OCCCCC)cc3)s2)s1" in this test?
Ans: false (0)

Q: Which outcome was assigned to "C#CC(C)(C)Oc1cc(O)c2c(=O)c3ccccc3n(C)c2c1" in this test?
Ans: false (0)

Q: Which outcome was assigned to "CCSc1nc(N)c2c(-c3ccc(OC)c(OC)c3)c3c(nc2n1)CCCC3" in this test?
Ans: false (0)

Q: Which outcome was assigned to "c1ccc2c(c1)c1ccccc1c1n[se]nc21" in this test?
Ans: false (0)

***
Q: Which outcome was assigned to C[C@]12CC/C(=N\OC(=O)Nc3ccccc3)C=C1CC[C@@H]1C2CC[C@@]2(C)C1CC[C@@H]2OC(=O)Nc1ccccc1 (stereo not given in full) in this test?
Ans: false (0)

Q: Which outcome was assigned to O=C1C(Cl)C(c2cc3cc(Br)ccc3nc2Cl)N1c1ccc(Cl)cc1 (stereo not given) in this test?
Ans: false (0)

Q: Which outcome was assigned to "Oc1nnc(-c2ccc(F)cc2)cc1-c1ccccc1" in this test?
Ans: false (0)

Q: Which outcome was assigned to "COc1ccc(/C=C2\CCCCCC2=O)cc1" in this test?
Ans: false (0)

Q: Which outcome was assigned to "O=c1oc2ccccc2c(Nc2ccc3c(c2)S(=O)(=O)c2ccccc2O3)c1[N+](=O)[O-]" in this test?
Ans: false (0)

Q: Which outcome was assigned to "COC(=O)Nc1nc2cc(NS(=O)(=O)c3ccc(F)cc3)ccc2[nH]1" in this test?
Ans: false (0)

Q: Which outcome was assigned to CCOC(=O)CCC(C(=O)OCC)n1nnc2ccc(Nc3c(C)[n+]([O-])c4cc(Cl)ccc4[n+]3[O-])cc21 (stereo not given) in this test?
Ans: false (0)

Q: Which outcome was assigned to Cc1ccc(SC2C(=O)C3CC(OCc4ccccc4)C2(C)C3(C)C)cc1 (stereo not given) in this test?
Ans: false (0)

====

- Test system: OVCAR-4
- Protocol details: NCI tumour cell line growth inhibition, 48 h
Activity calls are given as the source filed them. No stated cut-off is given here; in the data, active = GI50 up to about 1.1 µM and inactive = higher.
Measured metric: GI50

Q: Consider the compound "Cc1cccc(C)c1NC(=O)C(=O)Nn1c(NN)nc2ccccc2c1=O" and give its recorded GI50.
Ans: > 100 µM (inactive)

Q: Consider the compound "C=CCOC(=O)CCCCCCCCCCCCCCCOC(=O)c1c(CCC[C@@H](C)O[Si](C)(C)C(C)(C)C)nc([O-])[n+]2c1CC[C@H]2CC1(CC/C=C\[C@H](CC)O[Si](C(C)C)(C(C)C)C(C)C)OCCO1" and give its recorded GI50.
Ans: > 100 µM (inactive)

Q: Consider the compound "CC#C[I+]c1ccccc1" and give its recorded GI50.
Ans: 17.3 µM (inactive)

Q: Consider the compound "O=[N+]([O-])c1ccc(-[n+]2ccc3ccccc3c2)c([N+](=O)[O-])c1" and give its recorded GI50.
Ans: 1.56 µM (inactive)

Hey, can you go through the list below and give me GI50 for every item?
1. COC1C=CC(O)C(CO)O1 (centres undefined)
2. Cc1nn2c(=O)n(-c3cccc(-n4nnc5c(-c6ccccc6)c(C)nn5c4=O)c3C)nnc2c1-c1ccccc1
3. CN1CCN(c2ccc3nc(-c4cc(O)c5c(nc(CO)n5C)c4O)[nH]c3n2)CC1
4. COc1ccc(/C=C2\CCCCCC2=O)cc1

Ans:
> 100 µM (inactive)
15.6 µM (inactive)
19.5 µM (inactive)
> 100 µM (inactive)
